System: CAKI-1 renal
Experiment: NCI tumour cell line growth inhibition, 48 h
Reported TGI values for a set of compounds
Answer with a number only, understood to be in µM.

// worked examples, TGI included
N#CC1(C#N)C2(c3ccccc3)OC(c3ccccc3)(c3cc4ccccc4cc32)C1(C#N)C#N    24.1
O/N=C1/C(=C/c2ccc3c(c2)OCO3)CCCC1C(NO)c1ccc2c(c1)OCO2 (stereo not given)    94.6
CCOC(=O)Nc1ccc2c(c1)/C(=N\NC(N)=S)c1ccccc1-2    15.2
CCN1CCC(O)(c2ccc(Oc3ccccc3)cc2)C(C(=O)c2ccc(Oc3ccccc3)cc2)C1 (stereo not given)    31.2

TGI for CAKI-1 renal with input O=C(O)CN(CC(=O)O)Cc1cc(C#Cc2ccc(C#Cc3ccccc3)cc2)cc(CN(CC(=O)O)CC(=O)O)n1 equals 61.9

// returns TGI for COc1cc(C(=O)/C=C/c2ccc(OCC#N)cc2)cc(OC)c1OC with CAKI-1 renal; value = 69.6

// assay CAKI-1 renal, entry COc1ccc(/C=C2\CCC(CNc3ccc(S(N)(=O)=O)cc3)C2=O)cc1 (stereo not given) , TGI value = 19.3

// compound Clc1nc(Cl)c2ncn(CC3(Cn4cnc5c(Cl)nc(Cl)nc54)COC3)c2n1 , assay CAKI-1 renal, TGI value: 0.496
